We begin with IC50 values for IRAK4 (Homo sapiens (Human), UniProt Q9NWZ3), as collected from the published literature.

In [3]: df
Out[3]:
                         chemical_structure             value
0  Cc1cc(Nc2nc(OC3CCOCC3)c3c(ccn3-c3cccc(N(C)C)c3)n2)sn1  1000 to 10000 nM
1  Nc1cncc(-c2ccc3cnn(-c4cccc(C(F)(F)F)n4)c3c2)n1    100 to 1000 nM
2  CCC[C@H](N)c1cccc(-c2cc(OCCS(C)(=O)=O)c3cnn(-c4cccc(CO)n4)c3c2)n1    100 to 1000 nM

Moving on to another molecule below.
Item Cn1cc(-c2cccc(C(=O)Nc3nc(CCCCC(=O)N4CCC[C@H](C(=O)O)C4)cn3-c3ccccc3)c2)cn1 with IRAK4 (Homo sapiens (Human), UniProt Q9NWZ3) - IC50?
< 50 nM
